test: Binding affinity to human galectin8N by fluorescence polarization assay
Reported endpoint: Kd

[Q] Quick one: give measured Kd for `CO[C@@H]1O[C@H](CO)[C@H](O)[C@H](O)[C@H]1O`
[A] 6.3 mM

[Q] Quick one: give measured Kd for `CO[C@@H]1O[C@H](CO)[C@H](O)[C@H](OC(=O)c2ccc(C)cc2)[C@@H]1OC(C)=O`
[A] > 4 mM

[Q] Quick one: give measured Kd for `CO[C@@H]1O[C@H](CO)[C@H](O)[C@H](O)[C@@H]1O`
[A] 1.5 mM

---

assay: Binding affinity to human galectin8N by fluorescence polarization assay
Reported endpoint: Kd (µM)
Output spec: scalar in µM, unitless text.

Study these solved cases before continuing.
CO[C@@H]1O[C@H](CO)[C@H](O)[C@H](OC(=O)c2ccc(C)cc2)[C@@H]1OS(=O)(=O)O = 1100
CO[C@@H]1O[C@H](CO)[C@H](O)[C@H](OC(=O)c2ccc(C)cc2)[C@@H]1OC(=O)c1ccc(C)cc1 = 3600
CO[C@@H]1O[C@H](CO)[C@H](O)[C@H](OC(=O)c2ccc(C)cc2)[C@@H]1OP(=O)(O)OC = 1000

Continue with the compound presented below.
[Q] Quick one: give measured Kd for `CO[C@@H]1O[C@H](CO)[C@H](O)[C@H](OC(=O)c2ccc(C)cc2)[C@@H]1O`
[A] 400

---

test: Binding affinity to human galectin4C by fluorescence polarization assay
Overview of recorded Kd for various compounds

Study these solved cases before continuing.
CO[C@@H]1O[C@H](CO)[C@H](O)[C@H](O)[C@H]1O = > 10 mM
CO[C@@H]1O[C@H](CO)[C@H](O)[C@H](OC(=O)c2ccc(C)cc2)[C@@H]1OP(=O)(O)OC = > 4 mM

[Q] Quick one: give measured Kd for `CO[C@@H]1O[C@H](CO)[C@H](O)[C@H](OC(=O)c2ccc(C)cc2)[C@@H]1O[PH](=O)O`
[A] > 4 mM

Values from ChEMBL document CHEMBL1157484
